Each entry below carries its recorded OR85b response (VUAA1-normalized response).
Molecular target: Drosophila OR85b (Drosophila melanogaster, UniProt Q9VHQ7)
Construct: expressed in transfected cells
Sequence (Q9VHQ7 1-390): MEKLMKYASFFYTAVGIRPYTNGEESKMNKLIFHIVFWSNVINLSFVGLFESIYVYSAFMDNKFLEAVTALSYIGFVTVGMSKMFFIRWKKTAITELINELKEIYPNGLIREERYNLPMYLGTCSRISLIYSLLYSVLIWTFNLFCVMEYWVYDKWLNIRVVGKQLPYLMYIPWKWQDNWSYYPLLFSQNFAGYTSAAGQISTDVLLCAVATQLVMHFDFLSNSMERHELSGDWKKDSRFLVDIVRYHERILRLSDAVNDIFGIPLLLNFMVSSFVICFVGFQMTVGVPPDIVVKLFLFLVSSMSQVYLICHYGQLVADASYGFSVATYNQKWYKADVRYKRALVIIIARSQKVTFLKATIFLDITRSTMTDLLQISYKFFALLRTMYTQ
Sequence (Q9VNB5 1-486 partner): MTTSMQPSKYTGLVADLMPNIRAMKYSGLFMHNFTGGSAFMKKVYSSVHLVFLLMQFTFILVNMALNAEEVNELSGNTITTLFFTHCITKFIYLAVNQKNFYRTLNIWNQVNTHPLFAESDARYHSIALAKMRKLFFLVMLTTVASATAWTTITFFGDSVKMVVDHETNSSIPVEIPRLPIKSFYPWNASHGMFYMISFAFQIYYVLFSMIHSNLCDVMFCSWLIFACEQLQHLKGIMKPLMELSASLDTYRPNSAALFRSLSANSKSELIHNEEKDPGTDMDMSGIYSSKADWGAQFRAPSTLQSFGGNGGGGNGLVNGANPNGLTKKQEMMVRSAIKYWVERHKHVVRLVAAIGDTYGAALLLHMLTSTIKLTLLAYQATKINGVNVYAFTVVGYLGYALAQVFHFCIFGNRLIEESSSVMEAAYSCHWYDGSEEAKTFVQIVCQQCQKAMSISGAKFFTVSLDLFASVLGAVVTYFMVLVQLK
Experiment: Calcium ion fluorescence (GCaMP6) assay, OR85b stable HEK293 cell line
Assay type: cell-based
Settings: VOC concentration 1 μM
Method: These VUAA1 normalized ∆F values were used to compare the different receptors and ligands. The concentration-dependent effect of the reference ligands on their cognate cell lines was examined in more detail. Twelve different ligand concentrations were measured on each cell line in an overall 0.01 μM to 100 μM concentration range with 5 repetitions with three technical replicates each time. […]

Answered cases to consult:
{"molecule": "C=C(C)C1CCC2(C)OC2C1 (single isomer, unassigned; (+)) [(+)-limonene oxide]", "target.or.system": "Drosophila OR85b (Drosophila melanogaster, UniProt Q9VHQ7)", "recorded.result": 0.00}
{"molecule": "C=C(C)[C@H]1CC=C(C)CC1 [(R)-(+)-limonene]", "target.or.system": "Drosophila OR85b (Drosophila melanogaster, UniProt Q9VHQ7)", "recorded.result": 0.00}
{"molecule": "C=C(C)[C@H]1CC=C(C)CC1 [limonene]", "target.or.system": "Drosophila OR85b (Drosophila melanogaster, UniProt Q9VHQ7)", "recorded.result": 0.07}
{"molecule": "C=C1[C@H]2CC[C@@H]3[C@H]2C(C)(C)CCC[C@]13C [(+)-longifolene]", "target.or.system": "Drosophila OR85b (Drosophila melanogaster, UniProt Q9VHQ7)", "recorded.result": 0.08}
{"molecule": "CC(C)=CCC/C(C)=C/CC/C(C)=C/CO", "target.or.system": "Drosophila OR85b (Drosophila melanogaster, UniProt Q9VHQ7)", "recorded.result": 0.053}

Query string: // lookup OR85b response (VUAA1-normalized response) for CC1=CCC[C@@]2(C)[C@@H]3CC[C@]12CC3(C)C [(−)-α-neoclovene]
Result string: 0.00

Query string: // lookup OR85b response (VUAA1-normalized response) for CC/C=C\CCO
Result string: 0.00

Values were extracted from paper PMC10709440.
